test: Pharmacokinetic evaluation in humans
Assay type: in vivo
setup.conditions: human, plasma, 60 mg, noncompartmental, read-out: Vss, Median
readout: Vd (L)
Number only, in L; omit the unit.

Exercise: Which Vd value belongs to C[C@H](NC(=O)[C@H](CCC(=O)O)NC(=O)CCCC[C@@H]1CCSS1)C(=O)O [RLip-EA-OH, N-(R)-lipoyl-L-glutamyl-L- alanine] ?
Solution: 14.8

* * *

test: Pharmacokinetic evaluation in humans
Format: in vivo
setup.conditions: human, plasma, 150 mg, noncompartmental, read-out: Cmax, Minimum, maximum
readout: Cmax

Exercise: Which Cmax value belongs to C[C@H](NC(=O)[C@H](CCC(=O)O)NC(=O)CCCC[C@@H]1CCSS1)C(=O)O [RLip-EA-OH, N-(R)-lipoyl-L-glutamyl-L- alanine] ?
Solution: 14900 to 20000 ng/mL

* * *

test: Pharmacokinetic evaluation in humans
Format: in vivo
setup.conditions: human, plasma, 20 mg, noncompartmental, read-out: t1/2, Mean (SD) (converted)
readout: half-life (min)
Number only, in min; omit the unit.

Exercise: Which half-life value belongs to C[C@H](NC(=O)[C@H](CCC(=O)O)NC(=O)CCCC[C@@H]1CCSS1)C(=O)O [RLip-EA-OH, N-(R)-lipoyl-L-glutamyl-L- alanine] ?
Solution: 51.6

* * *

test: Pharmacokinetic evaluation in humans
Assay type: in vivo
setup.conditions: human, plasma, 20 mg, noncompartmental, read-out: Vss, Mean (SD)
readout: Vd (L)
Number only, in L; omit the unit.

Exercise: Which Vd value belongs to C[C@H](NC(=O)[C@H](CCC(=O)O)NC(=O)CCCC[C@@H]1CCSS1)C(=O)O [RLip-EA-OH, N-(R)-lipoyl-L-glutamyl-L- alanine] ?
Solution: 18.5

* * *

test: Pharmacokinetic evaluation in humans
Type: in vivo
setup.conditions: human, plasma, 60 mg, compartmental, read-out: CL, Mean (SD) (converted)
Experimental: Plasma and urine RLip-EA-OH concentrations were measured at BASi, Inc. (West Lafayette, Ind.) using a LC/MS/MS method with positive turbo ion spray, in the multiple reaction-monitoring mode. The quantifiable range for human plasma was 1.00 to 500 ng/mL and QC samples were included at 3.00, 75.0 and 375 ng/mL. The PK population included subjects who received RLip-EA-OH and had ≧1 post-dose PK measurement. […]
readout: clearance (mL/min)
Number only, in mL/min; omit the unit.

Exercise: Which clearance value belongs to C[C@H](NC(=O)[C@H](CCC(=O)O)NC(=O)CCCC[C@@H]1CCSS1)C(=O)O [RLip-EA-OH, N-(R)-lipoyl-L-glutamyl-L- alanine] ?
Solution: 467

* * *

test: Pharmacokinetic evaluation in humans
Type: in vivo
setup.conditions: human, plasma, 150 mg, noncompartmental, read-out: CL, Median (converted)
readout: clearance (mL/min)
Number only, in mL/min; omit the unit.

Exercise: Which clearance value belongs to C[C@H](NC(=O)[C@H](CCC(=O)O)NC(=O)CCCC[C@@H]1CCSS1)C(=O)O [RLip-EA-OH, N-(R)-lipoyl-L-glutamyl-L- alanine] ?
Solution: 363

* * *

test: Pharmacokinetic evaluation in humans
Format: in vivo
setup.conditions: human, plasma, 60 mg, noncompartmental, read-out: CL, Mean (SD) (converted)
readout: clearance (mL/min)
Number only, in mL/min; omit the unit.

Exercise: Which clearance value belongs to C[C@H](NC(=O)[C@H](CCC(=O)O)NC(=O)CCCC[C@@H]1CCSS1)C(=O)O [RLip-EA-OH, N-(R)-lipoyl-L-glutamyl-L- alanine] ?
Solution: 467
